All figures here come from paper PMC10916402.

# System: A. baumannii clinical isolates
# protocol.text: Broth microdilution MIC, A. baumannii clinical isolates
# Assay type: cell-based, Acinetobacter baumannii
# condition.label: 2018 Global collection, All A. baumannii, N 500
Label Met when Number of isolates inhibited at MIC of 1 µg/mL is at or above 80; anything below gets Not met.

*Q* Threshold query (Number of isolates inhibited at MIC of 1 µg/mL >= 80) on CN(C)[C@@H]1C(O)=C(C(N)=O)C(=O)[C@@]2(O)C(O)=C3C(=O)c4c(O)c(NC(=O)CN5CCCC5)cc(F)c4C[C@H]3C[C@@H]12
*A* Met

*Q* Threshold query (Number of isolates inhibited at MIC of 1 µg/mL >= 80) on CN(C)c1cc(NC(=O)CNC(C)(C)C)c(O)c2c1C[C@H]1C[C@H]3[C@H](N(C)C)C(O)=C(C(N)=O)C(=O)[C@@]3(O)C(O)=C1C2=O
*A* Not met

*Q* Threshold query (Number of isolates inhibited at MIC of 1 µg/mL >= 80) on C[C@@H](O)[C@H]1C(=O)N2C(C(=O)O)=C(S[C@@H]3CN[C@H](C(=O)N(C)C)C3)[C@H](C)[C@H]12
*A* Not met

*Q* Threshold query (Number of isolates inhibited at MIC of 1 µg/mL >= 80) on NCC[C@H](O)C(=O)N[C@@H]1C[C@H](N)[C@@H](O[C@H]2O[C@H](CN)[C@@H](O)[C@H](O)[C@H]2O)[C@H](O)[C@H]1O[C@H]1O[C@H](CO)[C@@H](O)[C@H](N)[C@H]1O
*A* Not met

* * *

pIC50: −log10 of the molar value.
Below are pIC50 values measured for UniProt Q2TR58.
Sequence (Q2TR58 19-280): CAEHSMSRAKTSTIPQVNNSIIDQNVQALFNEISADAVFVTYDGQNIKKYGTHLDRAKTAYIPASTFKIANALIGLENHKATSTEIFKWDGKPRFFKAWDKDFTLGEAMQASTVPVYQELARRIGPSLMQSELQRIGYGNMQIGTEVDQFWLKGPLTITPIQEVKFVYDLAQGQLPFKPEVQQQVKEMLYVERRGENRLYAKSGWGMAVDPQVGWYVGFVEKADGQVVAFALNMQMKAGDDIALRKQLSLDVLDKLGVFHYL

Below, each entry is followed by its recorded pIC50 result.
NC(=O)[C@@H]1CC[C@@H]2CN1C(=O)N2OS(=O)(=O)O : < 5.00
O=C(NC1CCNCC1)[C@@H]1CC[C@@H]2CN1C(=O)N2OS(=O)(=O)O (relative stereo) : < 5.00
O=C(NNC(=O)[C@@H]1CC[C@@H]2CN1C(=O)N2OS(=O)(=O)O)[C@@H]1CCCNC1 : < 5.00

*Q* May I ask what pIC50 has been recorded for O=C1N2C[C@@H](CC[C@H]2F)N1OS(=O)(=O)O ?
*A* 8.10

* * *

# Tested on: carbapenem-resistant Acinetobacter baumannii (CRAB) clinical isolates
# protocol.text: Broth microdilution MIC, CRAB isolates
# Format: cell-based
# condition.label: 2018 Global collection, CRAB (MEM MICs >4 µg/mL), N 363
# Method: All isolates were randomly selected from the frozen culture collection of IHMA collected in 2018 and 2019. Matrix-assisted laser desorption ionization-time of flight mass spectrometry was used to confirm the identity of the organisms tested (Bruker Daltonics, Bremen, Germany). MICs for all antimicrobial agents were determined at IHMA by broth microdilution in accordance with both CLSI ([17]) and EUCAST ([18]) guidelines. […]
measurement.name: Number of isolates inhibited at MIC of 8 µg/mL
Output spec: single numeric token, no unit.

NCC[C@H](O)C(=O)N[C@@H]1C[C@H](N)[C@@H](O[C@H]2O[C@H](CN)[C@@H](O)[C@H](O)[C@H]2O)[C@H](O)[C@H]1O[C@H]1O[C@H](CO)[C@@H](O)[C@H](N)[C@H]1O : 5
CN(C)c1cc(NC(=O)CNC(C)(C)C)c(O)c2c1C[C@H]1C[C@H]3[C@H](N(C)C)C(O)=C(C(N)=O)C(=O)[C@@]3(O)C(O)=C1C2=O : 28
CC(C)(O/N=C(\C(=O)N[C@@H]1C(=O)N2C(C(=O)[O-])=C(C[N+]3(CCNC(=O)c4ccc(O)c(O)c4Cl)CCCC3)CS[C@H]12)c1csc(N)n1)C(=O)O : 3

Next compound, Number of isolates inhibited at MIC of 8 µg/mL to be filled in.
*Q* May I ask what Number of isolates inhibited at MIC of 8 µg/mL has been recorded for C[C@@H](O)[C@H]1C(=O)N2C(C(=O)O)=C(S[C@@H]3CN[C@H](C(=O)N(C)C)C3)[C@H](C)[C@H]12 ?
*A* 5

* * *

# System: A. baumannii clinical isolates
# protocol.text: Broth microdilution MIC, A. baumannii clinical isolates
# Format: cell-based, Acinetobacter baumannii
# condition.label: 2018 Global collection, All A. baumannii, N 500
# Method: All isolates were randomly selected from the frozen culture collection of IHMA collected in 2018 and 2019. Matrix-assisted laser desorption ionization-time of flight mass spectrometry was used to confirm the identity of the organisms tested (Bruker Daltonics, Bremen, Germany). MICs for all antimicrobial agents were determined at IHMA by broth microdilution in accordance with both CLSI ([17]) and EUCAST ([18]) guidelines. […]
measurement.name: Number of isolates inhibited at MIC of ≤0.125 µg/mL

CN(C)[C@@H]1C(O)=C(C(N)=O)C(=O)[C@@]2(O)C(O)=C3C(=O)c4c(O)c(NC(=O)CN5CCCC5)cc(F)c4C[C@H]3C[C@@H]12 [Eravacycline, eravacycline] : 99
CC(C)(O/N=C(\C(=O)N[C@@H]1C(=O)N2C(C(=O)[O-])=C(C[N+]3(CCNC(=O)c4ccc(O)c(O)c4Cl)CCCC3)CS[C@H]12)c1csc(N)n1)C(=O)O [Cefiderocol, cefiderocol] : 123
C[C@@H](O)[C@H]1C(=O)N2C(C(=O)O)=C(S[C@@H]3CN[C@H](C(=O)N(C)C)C3)[C@H](C)[C@H]12 [MEM, meropenem] : 7

*Q* May I ask what Number of isolates inhibited at MIC of ≤0.125 µg/mL has been recorded for CN(C)c1cc(NC(=O)CNC(C)(C)C)c(O)c2c1C[C@H]1C[C@H]3[C@H](N(C)C)C(O)=C(C(N)=O)C(=O)[C@@]3(O)C(O)=C1C2=O [Tigecycline, tigecycline] ?
*A* 6

* * *

# target.system: KPC-2 (Klebsiella pneumoniae)
# Sequence (Q9F663 25-293 limits assumed): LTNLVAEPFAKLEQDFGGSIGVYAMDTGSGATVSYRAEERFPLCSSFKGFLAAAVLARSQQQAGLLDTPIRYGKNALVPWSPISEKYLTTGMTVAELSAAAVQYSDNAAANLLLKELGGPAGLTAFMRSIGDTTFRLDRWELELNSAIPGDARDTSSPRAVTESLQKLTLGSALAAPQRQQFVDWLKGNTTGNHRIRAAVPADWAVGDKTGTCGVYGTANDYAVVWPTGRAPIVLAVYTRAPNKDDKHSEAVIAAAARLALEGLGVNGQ
# protocol.text: In vitro SBL inhibition assay (nitrocefin hydrolysis), IC50
# Type: biochemical
# condition.label: KPC-2; 10 min preincubation, 30°C; read-out: Enzyme IC50
measurement.name: pIC50
Scale explanation: pIC50 corresponds to minus log10 of a concentration expressed in moles per litre.

*Q* Value wanted: pIC50 (KPC-2 (Klebsiella pneumoniae)) of entry O=C(O)C[C@@H]1CC[C@H](NC(=O)Cc2cccs2)B(O)O1
*A* 6.99

* * *

pIC50: −log10 of the molar value.
Below are pIC50 values measured for OXA-23 (Acinetobacter baumannii, UniProt Q9L4P2).

Below, each entry is followed by its recorded pIC50 result.
O=C1N2C[C@@H](CC[C@H]2F)N1OS(=O)(=O)O [ANT3310] : 7.49
NCCONC(=O)[C@@H]1CC[C@@H]2CN1C(=O)N2OS(=O)(=O)O [Nac, nacubactam] : < 5.52
O=C(NC1CCNCC1)[C@@H]1CC[C@@H]2CN1C(=O)N2OS(=O)(=O)O (relative stereo) [Rel, relebactam] : < 5.52

Next molecule, pIC50 to be filled in.
*Q* Value wanted: pIC50 (OXA-23 (Acinetobacter baumannii, UniProt Q9L4P2)) of entry O=C(O)C[C@@H]1CC[C@H](NC(=O)Cc2cccs2)B(O)O1 [Vab, vaborbactam]
*A* < 5.52

* * *

# target.system: OXA-48 (Klebsiella pneumoniae)
# Sequence (Q6XEC0 23-265, looked up, species assumed): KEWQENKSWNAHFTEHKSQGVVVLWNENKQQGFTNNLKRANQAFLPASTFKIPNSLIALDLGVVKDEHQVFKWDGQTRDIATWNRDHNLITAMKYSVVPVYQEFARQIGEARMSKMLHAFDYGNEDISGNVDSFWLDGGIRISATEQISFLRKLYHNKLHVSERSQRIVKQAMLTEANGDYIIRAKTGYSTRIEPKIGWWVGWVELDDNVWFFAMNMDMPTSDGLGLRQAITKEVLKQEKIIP
Below, each entry is listed with its recorded pIC50.
Scale explanation: pIC50 corresponds to minus log10 of a concentration expressed in moles per litre.

Below, each entry is followed by its recorded pIC50 result.
O=C1N2C[C@@H](CC[C@H]2F)N1OS(=O)(=O)O : 6.75
NCCN[C@H]1CC[C@H](CC(=O)N[C@H]2Cc3cccc(C(=O)O)c3OB2O)CC1 : 5.81

Next compound, pIC50 to be filled in.
*Q* Value wanted: pIC50 (OXA-48 (Klebsiella pneumoniae)) of entry CC1=C[C@@H]2CN(C(=O)N2OS(=O)(=O)O)[C@@H]1C(N)=O
*A* 8.47

* * *

# target.system: KPC-2 (Klebsiella pneumoniae)
# protocol.text: In vitro SBL inhibition assay (nitrocefin hydrolysis), IC50
# Format: biochemical
Could you mark each record Y if its IC50 falls strictly under 20 nM, and N if it equals or exceeds it?

Consider the worked cases shown below.
NCCONC(=O)[C@@H]1CC[C@@H]2CN1C(=O)N2OS(=O)(=O)O : N
NCCN[C@H]1CC[C@H](CC(=O)N[C@H]2Cc3cccc(C(=O)O)c3OB2O)CC1 : Y
CC1=C[C@@H]2CN(C(=O)N2OS(=O)(=O)O)[C@@H]1C(N)=O : Y

Pending molecule:
*Q* Determine if O=C(NNC(=O)[C@@H]1CC[C@@H]2CN1C(=O)N2OS(=O)(=O)O)[C@@H]1CCCNC1 shows IC50 strictly lower than 20 nM.
*A* N

* * *

# Test system: A. baumannii clinical isolates
# protocol.text: Broth microdilution MIC, A. baumannii clinical isolates
# Format: cell-based, Acinetobacter baumannii
# condition.label: Acinetobacter baumannii, 2018 Global collection, All A. baumannii, N 500; read-out: MIC90
measurement.name: MIC90

Below, each entry is followed by its recorded MIC90 result.
NCC[C@H](O)C(=O)N[C@@H]1C[C@H](N)[C@@H](O[C@H]2O[C@H](CN)[C@@H](O)[C@H](O)[C@H]2O)[C@H](O)[C@H]1O[C@H]1O[C@H](CO)[C@@H](O)[C@H](N)[C@H]1O : > 32 µg/mL
CN(C)c1cc(NC(=O)CNC(C)(C)C)c(O)c2c1C[C@H]1C[C@H]3[C@H](N(C)C)C(O)=C(C(N)=O)C(=O)[C@@]3(O)C(O)=C1C2=O : 4 µg/mL
C[C@@H](O)[C@H]1C(=O)N2C(C(=O)O)=C(S[C@@H]3CN[C@H](C(=O)N(C)C)C3)[C@H](C)[C@H]12 : > 32 µg/mL
CN(C)[C@@H]1C(O)=C(C(N)=O)C(=O)[C@@]2(O)C(O)=C3C(=O)c4c(O)c(NC(=O)CN5CCCC5)cc(F)c4C[C@H]3C[C@@H]12 : 2 µg/mL

Next compound, MIC90 to be filled in.
*Q* May I ask what MIC90 has been recorded for CC(C)(O/N=C(\C(=O)N[C@@H]1C(=O)N2C(C(=O)[O-])=C(C[N+]3(CCNC(=O)c4ccc(O)c(O)c4Cl)CCCC3)CS[C@H]12)c1csc(N)n1)C(=O)O ?
*A* 4 µg/mL
